# System: SN12C renal
# TEST_SUMMARY: NCI-60 one-dose screen, 48 h (100 = growth as untreated, 0 = no growth, -100 = all killed)
# CONDITION_PARAMETERS: 10 µM unless noted
Compounds without any hit were thinned out: in the full panel of roughly 83,000, 20% have a hit. Activity calls are given as the source filed them. The calls were made as follows: active = growth percent below 10; inactive = the rest.
RECORDED_METRIC: growth

Read the entry CC(=O)c1c(O)c(C)c(O)c2c1OC1=CC(=O)/C(=C(/C)N)C(=O)C12C (configuration not stated) and write its reported growth.
92.8% (inactive)

Read the entry CN1CCN(c2ccc(N3Cc4ccccc4OC4=C3C(=O)c3c(O)ccc(O)c3C4=O)cn2)CC1 and write its reported growth.
-62% (active)

Read the entry Cc1cc(O)c(C2=NN(c3ccc(S(N)(=O)=O)cc3)C(c3ccc(Cl)cc3)C2)c(C)c1Cl (configuration not stated) and write its reported growth.
36.1% (inactive)

Read the entry CC1CN(CCCOC(=O)Nc2ccc(Cl)cc2)CCN1C(C)(C)C (configuration not stated) and write its reported growth.
113% (inactive)

----------
Below is a list of entries, each paired with its recorded growth value.
# Test system: HT29 colon
# TEST_SUMMARY: NCI-60 one-dose screen, 48 h (100 = growth as untreated, 0 = no growth, -100 = all killed)
# CONDITION_PARAMETERS: 10 µM unless noted
Compounds without any hit were thinned out: in the full panel of roughly 83,000, 20% have a hit.
Numbers only; they are read as %.

Read the entry O=C1Cc2c([nH]c3ccc([N+](=O)[O-])cc23)-c2ccccc2N1 and write its reported growth.
4.95

***
Read the entry CC(CN1CCN(CCOCCO)CC1)CN1c2ccccc2Sc2ccc(Cl)cc21 (stereo not given) and write its reported growth.
-30.1

Read the entry O=C(OCc1ccc2c(Cl)cc(Cl)c(O)c2n1)c1cc2ccccc2[nH]1 and write its reported growth.
-81.1

Read the entry COc1ccc(C(=O)/C=C/c2cn(-c3ccccc3)nc2-c2cccc(Nc3ccnc4cc(Cl)ccc34)c2)cc1 and write its reported growth.
104

Read the entry Oc1c(-c2cc(C(F)(F)F)[nH]n2)cc(Cl)c(OCc2ccc(Cl)cc2)c1-c1ccc(Cl)c(C(F)(F)F)c1 and write its reported growth.
6.96

Read the entry CC1=C(C(=O)Nc2ccc(F)cc2)C(c2ccccc2)C2=C(CC(C)(C)CC2=O)N1 (stereo not given) and write its reported growth.
96.3

Read the entry Oc1ccc(Cl)cc1-c1cc(-c2ccccc2Cl)[nH]n1 and write its reported growth.
92.2

Read the entry O=C(/C=C/c1ccccc1)n1c(-c2ccccc2)nc2ccccc21 and write its reported growth.
110

Read the entry Cc1ccc(N2C3c4ccccc4N(S(=O)(=O)c4ccc(C)cc4)C2c2ccccc2N3S(=O)(=O)c2ccc(C)cc2)cc1 and write its reported growth.
101

Read the entry Cc1nc2n[nH]c(N)c2nc1C and write its reported growth.
93.6

----------
# Tested on: MCF7 breast
# TEST_SUMMARY: NCI-60 one-dose screen, 48 h
# CONDITION_PARAMETERS: 10 µM unless noted
This is part of a sample that, as a whole, favours compounds with a hit. Of some 83,000 tested, about 20% had one in any assay. Active and inactive are the calls of the source. How the source made its calls: active means growth percent below 10; inactive means the rest.
Classes to choose from: active, inactive

Completed entries (count: 3):
Please let me know the test result on file for CC1CCN(Cc2ccc(NC(=O)c3cc4ccc5cccnc5c4[nH]3)cc2)CC1 .
inactive

Please let me know the test result on file for CC(=O)O[C@H]1[C@H](CC#CC#CC[C@@H]2C[C@]3(C)[C@H]4CC=C5[C@H]6[C@@H](C)[C@H](C)CC[C@]6(C(=O)NCCCCCCCCN)CC[C@@]5(C)[C@]4(C)CC[C@H]3C(C)(C)[C@H]2OC(C)=O)C[C@]2(C)[C@H]3CC=C4[C@H]5[C@@H](C)[C@H](C)CC[C@]5(C(=O)NCCCCCCCCN)CC[C@@]4(C)[C@]3(C)CC[C@H]2C1(C)C .
inactive

Please let me know the test result on file for CCC(=O)NC(O)C(Cl)(Cl)C(C)Cl (configuration not stated) .
inactive

--- query ---
Please let me know the test result on file for Cc1nc2ccc(Nc3nc(Cl)nc(N4CCOCC4)n3)cc2n1Cc1ccccc1 .
inactive
